Values from ChEMBL document CHEMBL5316374

- study_system: ATP-citrate synthase (Homo sapiens, UniProt P53396)
- Sequence (P53396 whole entry): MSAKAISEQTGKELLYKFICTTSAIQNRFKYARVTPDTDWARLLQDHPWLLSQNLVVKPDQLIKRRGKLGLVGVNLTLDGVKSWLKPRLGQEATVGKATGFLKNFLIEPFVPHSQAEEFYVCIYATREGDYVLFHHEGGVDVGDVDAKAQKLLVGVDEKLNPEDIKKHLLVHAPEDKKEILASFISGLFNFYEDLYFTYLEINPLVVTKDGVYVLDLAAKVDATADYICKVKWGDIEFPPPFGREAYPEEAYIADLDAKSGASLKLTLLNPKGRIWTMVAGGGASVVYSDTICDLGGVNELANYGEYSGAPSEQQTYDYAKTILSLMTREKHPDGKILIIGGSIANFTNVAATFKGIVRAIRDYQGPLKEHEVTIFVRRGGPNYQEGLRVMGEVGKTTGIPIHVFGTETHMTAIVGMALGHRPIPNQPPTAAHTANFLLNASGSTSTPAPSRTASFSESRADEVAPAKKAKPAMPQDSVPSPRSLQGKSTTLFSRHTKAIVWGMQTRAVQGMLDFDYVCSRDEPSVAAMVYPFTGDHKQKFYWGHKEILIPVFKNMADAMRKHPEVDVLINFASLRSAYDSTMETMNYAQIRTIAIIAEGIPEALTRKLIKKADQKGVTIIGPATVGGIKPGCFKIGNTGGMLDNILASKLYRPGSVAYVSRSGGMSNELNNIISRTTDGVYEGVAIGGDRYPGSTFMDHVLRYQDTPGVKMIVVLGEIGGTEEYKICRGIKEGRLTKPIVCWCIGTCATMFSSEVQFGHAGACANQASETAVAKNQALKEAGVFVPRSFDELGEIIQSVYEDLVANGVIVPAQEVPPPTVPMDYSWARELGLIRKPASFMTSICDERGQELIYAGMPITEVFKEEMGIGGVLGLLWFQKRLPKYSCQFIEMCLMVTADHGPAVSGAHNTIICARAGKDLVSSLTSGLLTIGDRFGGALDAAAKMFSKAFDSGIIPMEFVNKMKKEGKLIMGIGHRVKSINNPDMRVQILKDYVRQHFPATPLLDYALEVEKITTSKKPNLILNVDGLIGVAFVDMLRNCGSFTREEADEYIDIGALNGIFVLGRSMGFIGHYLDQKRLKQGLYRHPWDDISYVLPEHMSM
measured_quantity: IC50 (µM)

Use these answered entries as a reference point.
item_smiles=C=C1CC[C@@](C)([C@H](C)CC(=O)C[C@]2(C(=O)O)C[C@H]3C[C@@H]4[C@@]5(C)CCC[C@@](C)(C(=O)O)[C@@H]5CC[C@]42C=C3C(C)C)[C@@]12CCC1=C2CC[C@@H]2[C@@H]1CCC(=O)C2(C)C measured_quantity=IC50 experimental_value=1.8
item_smiles=C=C1CC[C@@](C)([C@H](C)CC(=O)C[C@@]2(C(=O)O)C[C@H]3C[C@@H]4[C@@]5(C)CCC[C@@](C)(C(=O)O)[C@@H]5CC[C@]42C=C3C(C)C)[C@@]12CCC1=C2CC[C@@H]2[C@@H]1CCC(=O)C2(C)C measured_quantity=IC50 experimental_value=3.3
item_smiles=CC(C)C1=C[C@@]23CC[C@@H]4[C@](C)(CCC[C@@]4(C)C(=O)O)[C@H]2C[C@@H]1C[C@@]3(CC(=O)C[C@@H](C)[C@H]1CC[C@@]2(C)C3=C(CC[C@]12C)[C@H]1CCC(=O)C(C)(C)[C@@H]1CC3)C(=O)O measured_quantity=IC50 experimental_value=2.6
item_smiles=C=C1CC[C@@](C)([C@H](C)CC(=O)[C@@H]2[C@H]3C[C@@H]4[C@@]5(C)CCC[C@@](C)(C(=O)O)[C@@H]5CC[C@@]4(C=C3C(C)C)[C@@]2(C)C(=O)O)[C@@]12CCC1=C2CC[C@H]2C(C)(C)C(=O)CC[C@]12C measured_quantity=IC50 experimental_value=3.6

(P) COc1ccc(-c2ccccc2)cc1NS(=O)(=O)c1cc(Cl)cc(Cl)c1O
(Q) CC(C)C1=C[C@@]23CC[C@@H]4[C@](C)(CCC[C@@]4(C)C(=O)O)[C@H]2C[C@@H]1[C@H](C(=O)C[C@@H](C)[C@H]1CC[C@@]2(C)C4=C(CC[C@]12C)[C@H]1CCC(=O)C(C)(C)[C@@H]1CC4)[C@@]3(C)C(=O)O
Hi, I'm comparing P with Q and wondering which one has the bigger number for IC50. Any idea? Choose, then provide that item's label.
Q
(Q: 6.2 µM, P: 0.46 µM)
